Test system: HL-60(TB) leukemia
method: NCI tumour cell line growth inhibition, 48 h
I would appreciate it if you labelled entries y when TGI is 20 µM or higher, otherwise n.

Example results:
{"columns": ["molecule", "discrete label"],
 "data": [
  ["O=C1CCC2C(O)c3cc4c(cc3C(c3ccc5c(c3)OCO5)N12)OCO4 (centres undefined)", "y"],
  ["COC1CC(OS(=O)(=O)c2ccc([N+](=O)[O-])cc2)C(OC(=O)c2ccccc2)C(C)O1 (centres undefined)", "y"],
  ["O=C([CH-]C(=O)c1ccccc1)c1ccccc1.O=C([CH-]C(=O)c1ccccc1)c1ccccc1.[La+3].[OH-].[OH3+]", "y"],
  ["CN(C)CC/C(=N\\Nc1ccc([N+](=O)[O-])cc1)c1ccccc1", "n"],
  ["Oc1c(C(Nc2cccc3cccnc23)c2ccccc2)ccc2cccnc12 (centres undefined)", "n"]
]}

Task: # bool: TGI of N#CC(NC12CC3CC(CC(C3)C1)C2)c1ccc2c(c1)OCO2 (centres undefined) >= 20 µM
Result: y

Task: Confirm if TGI reported for the molecule COc1ccc(C2=CC(c3ccc4c(c3)OCO4)c3c(c4ccccc4oc3=O)O2)cc1OC (centres undefined) is 20 µM or above.
Result: n

Task: Kindly determine if TGI recorded for COc1ccc(-c2c[nH]c(C(=O)O)c2-c2cc(OC)c(OC)c(OC)c2)cc1 is above or exactly 20 µM.
Result: n

Task: Has c1ccc2[nH]c(-c3ccc(-c4nccc5c4[nH]c4ccccc45)cc3)nc2c1 a recorded TGI greater than or equal to 20 µM?
Result: n

* * *

Values of GI50 reported for U251 CNS appear below.

Completed entries (count: 8):
{"columns": ["molecule", "measured on", "readout", "measured value"],
 "data": [
  ["Cc1cc(O)c(C(C)C)cc1S(=O)(=O)O (tested in a mixture with another compound)", "U251 CNS", "GI50", "0.368 µM"],
  ["C#Cc1c(F)ccc2cc(O)cc(-c3ncc4c(N5CC6CCC(C5)N6)nc(OC[C@@]56CCCN5C[C@H](F)C6)nc4c3F)c12", "U251 CNS", "GI50", "10.9 µM"],
  ["C[C@H]1[C@H](C)CC[C@]2(CO)CC[C@]3(C)C(=CC[C@@H]4[C@@]5(C)CCCNC(C)(C)[C@@H]5CC[C@]43C)[C@H]12", "U251 CNS", "GI50", "1.67 µM"],
  ["COc1cc(NC(C)CCCNC2CN3CCC2CC3)c2ncccc2c1 (configuration not stated)", "U251 CNS", "GI50", "10.6 µM"],
  ["C=C1CCC2C3(C)COC(c4ccc(N(C)C)cc4)OC3CCC2(C)C1C/C=C1/C(=O)OCC1O (configuration not stated)", "U251 CNS", "GI50", "2.1 µM"],
  ["COc1cc(C(=O)O[C@H](C(=O)NCCCCCNC(=O)[C@@H](OC(=O)c2cc(OC)cc3c(C)cccc23)[C@]2(C)CO2)[C@]2(C)CO2)c2cccc(C)c2c1", "U251 CNS", "GI50", "< 0.01 µM"],
  ["CN(C)CCN1C(=O)c2ccccc2N(C)c2ccccc21", "U251 CNS", "GI50", "> 100 µM"],
  ["CCC(C)(CC(C)(C)C(=O)NCC(=O)NC(Cc1ccccc1)C(=O)NC(Cc1ccccc1)C(=O)NCC(=O)NC1CC(OC2CC(O)(C(=O)CO)Cc3c(O)c4c(c(O)c32)C(=O)c2c(OC)cccc2C4=O)OC(C)C1O)C(=O)NCC(C)O (configuration not stated)", "U251 CNS", "GI50", "51.2 µg/mL"]
]}

Please give GI50, item by item, for the list that follows.
1. COc1cnc2c(c1)C(=O)c1c-2n(CCCn2ccnc2)c(=O)c2cc(F)ccc12
2. O=C(CCCCCCCCC(=O)N/N=C\c1ccccc1O)N/N=C\c1ccccc1O
3. COc1cc([N+](=O)[O-])c(OC)cc1-c1nc2sc(Cl)cn2c1/C(N)=N/C(=N)N
4. CC(C)N(Cc1ccccc1)c1c(S)ssc1=S

Result:
1. < 0.01 µM
2. 0.308 µM
3. 3.41 µM
4. 2.58 µM

I need GI50 for every entry listed below, if you could help.
1. COc1cc(C[C@H]2c3cc(OC)c(OC)cc3CCN2C)c(Oc2cc3c(cc2OC)-c2c(OC)c(OC)cc4c2[C@H](C3)N(C)CC4)cc1OC
2. CCN(CC)CCCCNc1c2ccccc2[n+](C)c2c1[nH]c1ccccc12
3. CC1CCC(NC(=O)N(CCCl)N=O)CC1 (configuration not stated)

Result:
1: 10.7 µM; 2: 0.238 µM; 3: 20.8 µM

Hi team, please reply with GI50 for each item in this list.
1. COc1ccc(-c2c[nH]c(C(=O)O)c2-c2cc(OC)c(OC)c(OC)c2)cc1
2. Fc1ccc2c(c1)C1=NN(c3ccccc3)C(F)C1CO2 (configuration not stated)

Result:
["4.99 µM", "7.29 µM"]

* * *

Test system: OVCAR-8 ovarian
method: NCI tumour cell line growth inhibition, 48 h
readout: GI50

{"columns": ["compound", "measured value"],
 "data": [
  ["C=C1CCC2C3(C)COC(c4ccc(N(C)C)cc4)OC3CCC2(C)C1C/C=C1/C(=O)OCC1O (stereo not given)", "3.78 µM"],
  ["Cc1cc2c(cc1C)N(C(=O)CCl)CC(=O)N2", "3.01 µM"],
  ["COc1ccc(-c2cc(=O)[nH]c3c(OC)c4ccccc4c(OC)c23)cc1", "1.29 µM"],
  ["Nc1c(C(=O)c2cccc(-c3ccncc3)c2)cnn1-c1ccc(F)cc1F", "18.3 µM"]
]}

Continue with the compound presented below.
Task: Which GI50 reading was recorded for the compound CN[C@@H](C)C(=O)N[C@H](C(=O)N1CCC[C@H]1C(=O)Nc1snnc1-c1ccccc1)C1CCCCC1 ?
Result: 13.8 µM

* * *

Give TGI for every item shown.
System: OVCAR-4 ovarian
method: NCI tumour cell line growth inhibition, 48 h

Sample answers from the record:
{"columns": ["molecule", "TGI"],
 "data": [
  ["CN1CCc2[nH]c3ccccc3c2C1", "> 100 µM"],
  ["COC(=O)c1nc(-c2ccccc2)oc1S(=O)(=O)Cc1ccccc1", "3.4 µM"],
  ["O=C1CCC2C(O)c3cc4c(cc3C(c3ccc5c(c3)OCO5)N12)OCO4 (stereo unspecified)", "> 100 µM"],
  ["CCOc1cc(NC(C)=O)ccc1C(=O)NN1C(=O)C(Cl)C1c1ccccc1 (stereo unspecified)", "32.7 µM"],
  ["COC(=O)C1(CCC(C)=O)CCCCCC1=O (stereo unspecified)", "> 100 µM"]
]}

Each molecule below has a reported value. Please supply its TGI.
1. O=C(CN1CCCCC1)Nc1ccc2sc3ccccc3c(=O)c2n1
2. CC(C)OC(=O)c1ccc(NCc2cc(O)ccc2O)cc1Cl
3. C[N+](C)(C)CC(=O)N/N=C/c1oc(-c2c(O)ccc3ccccc23)c(-c2c(O)ccc3ccccc23)c1[N+](=O)[O-]
4. CP1(=O)CCCCC1

Result:
1. > 100 µM
2. 21.9 µM
3. 80.8 µM
4. > 100 µM

State the recorded TGI for every item in the following list.
1. C=CCN1C(=O)/C(=C/c2ccco2)N=C1SC/C=C/C
2. CCOC(=O)NC(=O)c1cn(CCOC(=O)CCCCCCCCC(=O)OCCn2cc(C(=O)NC(=O)OCC)c(=O)[nH]c2=O)c(=O)[nH]c1=O
3. CC(CCN)(CCN)[N+](=O)[O-]

Result:
> 100 µM
> 100 µM
> 100 µM

State the recorded TGI for every item in the following list.
1. CC/C=C1/C(=O)C=C[C@@H]1C/C=C\CCCC(=O)OC
2. Cc1cc(O)c(C(C)C)cc1S(=O)(=O)O (tested in a mixture with another compound)
3. COc1cc(C(=O)O[C@H](C(=O)NCCCCCNC(=O)[C@@H](OC(=O)c2cc(OC)cc3c(C)cccc23)[C@]2(C)CO2)[C@]2(C)CO2)c2cccc(C)c2c1
4. Nc1ccnc(=O)[nH]1
5. COc1ccc(-c2cn(-c3cc(OC)c(OC)c(OC)c3)c(SCc3ccccc3)n2)cc1OC
6. CCOC(=O)P(=O)(O)c1ccc(N(C)Cc2ccccc2)cc1
7. O=C(NC1=NCC(CN2CCN(c3ccccc3)CC2)O1)Nc1ccccc1 (stereo unspecified)
8. COc1ccc(C2=CC(c3ccc4c(c3)OCO4)c3c(c4ccccc4oc3=O)O2)cc1OC (stereo unspecified)

Result:
1. 18 µM
2. 6.64 µM
3. > 100 µM
4. > 100 µM
5. > 100 µM
6. > 100 µM
7. > 100 µM
8. > 100 µM

Task: Field: TGI (OVCAR-4 ovarian). Entry: CCOP(=O)(OCC)/C(C#N)=C/c1ncc[nH]1
Result: > 100 µM

Source listed as PubChem BioAssay (NCI).
